# target.desc: T1, ICP8Δ60 (HSV-1 ICP8 lacking the 60-aa C-terminal tail) (herpes simplex virus type 1 (HSV-1), …, UniProt P17470 1-1136, in the MST only: labelled on amines with the red dye NT-647-NHS (RED-NHS Monolith kit); unlabelled in the thermal shift assays)
# T1 construct: the tail is printed as residues 1136-1196; source: Sf9 insect cells infected with recombinant baculovirus (pFastBac1-ICP8Δ60), purified (SP-Sepharose cation exchange)
# T1 sequence: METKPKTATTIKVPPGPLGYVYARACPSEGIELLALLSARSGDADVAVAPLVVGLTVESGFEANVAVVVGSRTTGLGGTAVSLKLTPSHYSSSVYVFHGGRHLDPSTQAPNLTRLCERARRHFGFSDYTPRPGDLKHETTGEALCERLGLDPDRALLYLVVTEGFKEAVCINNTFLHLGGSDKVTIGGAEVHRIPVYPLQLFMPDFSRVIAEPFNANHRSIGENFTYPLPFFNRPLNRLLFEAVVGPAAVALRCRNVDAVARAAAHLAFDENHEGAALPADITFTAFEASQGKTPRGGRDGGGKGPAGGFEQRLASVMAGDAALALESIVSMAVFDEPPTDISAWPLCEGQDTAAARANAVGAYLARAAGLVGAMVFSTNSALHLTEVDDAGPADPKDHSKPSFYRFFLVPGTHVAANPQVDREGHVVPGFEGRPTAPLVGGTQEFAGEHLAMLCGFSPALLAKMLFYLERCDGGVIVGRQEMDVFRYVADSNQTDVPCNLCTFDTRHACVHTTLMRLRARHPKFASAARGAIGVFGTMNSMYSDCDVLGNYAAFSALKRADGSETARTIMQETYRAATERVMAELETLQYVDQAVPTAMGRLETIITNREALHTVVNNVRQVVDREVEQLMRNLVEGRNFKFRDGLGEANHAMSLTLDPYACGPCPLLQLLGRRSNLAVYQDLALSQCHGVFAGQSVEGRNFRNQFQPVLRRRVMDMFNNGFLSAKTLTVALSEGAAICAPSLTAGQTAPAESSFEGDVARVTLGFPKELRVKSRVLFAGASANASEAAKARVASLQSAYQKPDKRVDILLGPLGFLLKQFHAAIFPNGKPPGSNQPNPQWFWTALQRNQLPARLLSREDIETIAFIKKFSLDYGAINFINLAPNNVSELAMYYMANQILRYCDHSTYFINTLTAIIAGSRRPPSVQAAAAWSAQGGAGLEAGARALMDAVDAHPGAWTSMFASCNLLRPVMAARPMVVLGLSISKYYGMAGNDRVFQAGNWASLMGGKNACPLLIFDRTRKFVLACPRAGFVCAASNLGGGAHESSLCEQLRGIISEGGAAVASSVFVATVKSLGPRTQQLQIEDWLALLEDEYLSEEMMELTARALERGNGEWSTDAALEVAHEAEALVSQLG
# procedure.text: MST; ICP8Δ60 labelled with NT-647-NHS at 20 nM or 50 nM, unlabelled CTD fragment titrated from low nanomolar to high micromolar; 20 mM sodium phosphate pH 7.5, 100 mM NaCl, 0.1 mM EDTA, 2 mM DTT, 5 mM MgCl2, 0.05% Tween 20; 30 min at RT; one site binding model
# stated.conditions: both partners purified
property: Kd (µM)
Give bare numbers, in µM.

Would you please look over these solved cases?
{"binder": "ICP8-CTD FNF→AAA (domain or fragment, ICP8 (UL29) of HSV-1, C-terminal domain, residues 1036-1196, with the triple alanine substitution of F1142, N1143 and F1144; the text has 1142-1144; also called FNF→AAA CTD; source: E. coli BL21 (pET28a-His-ICP8-CTD mutant), purified (Talon cobalt beads, Superose 12 gel filtration)) AASNLGGGAHESSLCEQLRGIISEGGAAVASSVFVATVKSLGPRTQQLQIEDWLALLEDEYLSEEMMELTARALERGNGEWSTDAALEVAHEAEALVSQLGNAGEVAAAGDFGCEDDNATPFGGPGAPGPAFAGRKRAFHGDDPFGEGPPDKKGDLTLDML", "Kd / µM": 21.1}
{"binder": "ICP8-CTD WT (His-tagged entire C-terminal domain of ICP8, residues 1036-1196) (domain or fragment, ICP8 (UL29) of HSV-1, entire C-terminal domain with the helical bundle and the intact 60-aa disordered tail, residues 1036-1196; The methods give no limits for the pET28a construct and give aa 1049-1135 for the Flag-tagged CTD of the cell experiments; also called WT ICP8-CTD; WT CTD; source: E. coli BL21 (pET28a-His-ICP8-CTD, codon optimised), purified (Talon cobalt beads, Superose 12 gel …)) AASNLGGGAHESSLCEQLRGIISEGGAAVASSVFVATVKSLGPRTQQLQIEDWLALLEDEYLSEEMMELTARALERGNGEWSTDAALEVAHEAEALVSQLGNAGEVFNFGDFGCEDDNATPFGGPGAPGPAFAGRKRAFHGDDPFGEGPPDKKGDLTLDML", "Kd / µM": 0.147}
{"binder": "ICP8-CTD D1087A (domain or fragment, ICP8 (UL29) of HSV-1, C-terminal domain, residues 1036-1196, with D1087A; source: E. coli BL21 (pET28a-His-ICP8-CTD mutant), purified (Talon cobalt beads, Superose 12 gel filtration)) AASNLGGGAHESSLCEQLRGIISEGGAAVASSVFVATVKSLGPRTQQLQIEAWLALLEDEYLSEEMMELTARALERGNGEWSTDAALEVAHEAEALVSQLGNAGEVFNFGDFGCEDDNATPFGGPGAPGPAFAGRKRAFHGDDPFGEGPPDKKGDLTLDML", "Kd / µM": 1.55}

Continue with the next binder.
Ask: Consider the binder shown here: ICP8-CTD Δ60 (domain or fragment, ICP8 (UL29) of HSV-1, C-terminal domain (begins at 1036) with the last 60 residues deleted; source: E. coli BL21 (pET28a-His-ICP8-CTDΔ60), purified (Talon cobalt beads, Superose 12 gel filtration)) AASNLGGGAHESSLCEQLRGIISEGGAAVASSVFVATVKSLGPRTQQLQIEDWLALLEDEYLSEEMMELTARALERGNGEWSTDAALEVAHEAEALVSQLG What is its recorded Kd?
Result: 53.5
